Target Desc: T1, human serum albumin (human, UniProt P02768 25-609)
T1 construct: also called HSA
Run Description: SPR, single cycle kinetics, pH 5.5
Consider the following binders and their measured Kd readings.
Quantity Kind: Kd (nM)

• Rh34-H2 (VHH) VHH: EVQLVESGGGLVQPGGSLRLSCAASGRTISLYAVGWFRQAPGKEREFVSAISWTDSSTYYADSVKGRFTISRDNSKNTLYLQMNSLRAEDTAVYYCAADVSIRGLQKYEYDYWGQGTLVTVS = 2320
• H18-H4 (VHH) VHH: QVQLVESGGGLVQPGGSLRLSCAASGSIESINRMAWYRQAPGQQREFVARISKGGSTNYPDSVKGRFTISRDNSKNTLYLQMNSLRAEDTAVYYCAAGPVWEQFWGQGTLVTVSS = 57.1
• Rh46-H4 (VHH) VHH: QVQLVESGGGLVQPGGSLRLSCAASTRTFSSYIMGWFRQAPGKERELVAAISWSGRMTHYADSVKGRFTISRDNSKNTLYLQMNSLRAEDTAIYSCAADRTTAWGAPRSQYDSWGQGTLVTVSS = 51.5
• M79-H3 (VHH) VHH: EVQLVESGGGLVQPGGSLRLSCAASGSTFSSSSVGWYRQAPGKQRELVSAITSGGSTNTADSVKGRFTISRDNSKNTLYLQMNSLRAEDTAVYYCNVAGRNWVPISRYSPGPYWGQGTLVTVSS = 9.6
